# subjectOfTest: G-protein coupled receptor 55 (Homo sapiens)
# experiment: GPR55 antagonists blocking LPI-driven arrestin recruitment, primary screen, imaging, U2OS, beta-arrestin-GFP, LPI agonist (AID 2013);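 also: U2OS cells stably carrying GPR55 and arrestin-GFP stimulated by 5 µM LPI near EC80; imaged beta-arrestin-GFP aggregate spots per cell after agonist stimulation; plate controls were LPI-stimulated DMSO wells for no effect and DMSO wells without LPI for full effect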
# conditionParameters: U2OS GPR55 beta-arrestin-GFP translocation imaging, LPI antagonism; at 10 µM
Out of some 290,000 compounds screened, about 370 (0.13%) were called active.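 The calls were made as follows: active = spots per cell inhibited over 60%, with over 100 cells counted and total cytoplasm intensity under 500,000; inconclusive = wells with under 100 cells, flagged as likely toxic; inactive = the rest.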 The full list was thinned out, with actives kept by preference. Measured potencies and affinities stand elsewhere.
Labels: 1.0 = active, 0.0 = inactive

>  <compound>
Nc1c(S(=O)(=O)O)cc(NC(=O)c2ccccc2)c2c1C(=O)c1ccccc1C2=O

>  <groupLabel>
0.0

$$$$
>  <compound>
c1ccc2c(c1)OCC(c1csc3ncnc(N4CCCC4)c13)O2 (stereo not given)

>  <groupLabel>
0.0

$$$$
>  <compound>
CC(C)CCN(Cc1ccco1)S(=O)(=O)c1ccc(-c2ccc(=O)[nH]n2)s1

>  <groupLabel>
0.0

$$$$
>  <compound>
c1ccc2c(c1)OCC(c1csc3ncnc(N4CCOCC4)c13)O2 (stereo not given)

>  <groupLabel>
0.0

$$$$
>  <compound>
CN(CC(=O)Nc1cccc(F)c1)C(=O)c1cc(S(=O)(=O)N(C)C)ccc1N1CCCC1

>  <groupLabel>
0.0

$$$$
>  <compound>
CC(=O)c1ccc(N2CCN(C3CCC(C(C)(C)C)CC3)CC2)cc1 (stereo not given)

>  <groupLabel>
0.0

$$$$
>  <compound>
Cc1cc(C)c(Nc2cc(S(=O)(=O)O)c(N)c3c2C(=O)c2ccccc2C3=O)c(C)c1

>  <groupLabel>
1.0

$$$$
>  <compound>
O=C(OCn1ncc(Cl)c(Cl)c1=O)c1ccc(F)cc1

>  <groupLabel>
0.0

$$$$
>  <compound>
c1ccc2c(c1)OCC(c1csc3ncnc(N4CCCCC4)c13)O2 (stereo not given)

>  <groupLabel>
0.0

$$$$
>  <compound>
CCCCC(O)(CCCC)C(=O)NN(C(=O)c1cccnc1Cl)c1ccccc1

>  <groupLabel>
0.0

$$$$
